ASSAY_PROTOCOL: In vitro rat microsomal stability assay
Type: in vitro ADME, rat (Sprague-Dawley)
PROTOCOL_CONDITIONS: 0.5 μM substrate, 0.25 mg/mL microsomal protein, pH 7.4, 37° C., NADPH, 30 minutes
Attribute: RAT […] (% REMAINING AFTER 30 MINUTES)
For clarity, give the value followed by its unit.

Consider the worked cases shown below.
>>> assay_value("CC1(O)CC(c2ccc(C(F)(F)F)cc2)([C@H](O)c2ccccn2)C1 (stereo in doubt)")
"67%"
>>> assay_value("C[C@]1(O)C[C@](c2cc(C(F)(F)F)ccn2)([C@H](O)c2ccccn2)C1 (relative stereo)")
"69%"
>>> assay_value("O[C@H](c1ccccn1)[C@]1(c2cccc(C(F)(F)F)c2)C[C@H](O)C1 (relative stereo)")
"73%"

// moving on: another record for RAT […] (% REMAINING AFTER 30 MINUTES)
Find the measured RAT […] (% REMAINING AFTER 30 MINUTES) of O[C@H](c1ccccn1)[C@]1(c2cccc(C(F)(F)F)c2)C[C@@H](O)C1 (relative stereo) and report it.
59%

###

ASSAY_PROTOCOL: In vitro rat microsomal stability assay
Format: in vitro ADME, rat (Sprague-Dawley)
PROTOCOL_CONDITIONS: Sprague-Dawley, rat, 0.5 h, 0.5 μM, pH 7.4
Everything with RAT MICROSOMAL STABILITY (% REMAINING AFTER 30 MINUTES) lower than 50% is label 0; everything else, including exactly 50%, is label 1.

Worked examples, 5 molecules total:
>>> assigned_class("O=C1CC(c2ccc(C(F)(F)F)cc2)([C@@H](O)c2ccccn2)C1")
"label 1"
>>> assigned_class("OC(c1ccccn1)C1(c2ccc(C(F)(F)F)cc2)CC(F)(F)C1 (centres unmarked)")
"label 1"
>>> assigned_class("OC(c1ccccn1)C1(c2cccc(C(F)(F)F)n2)CCC1 (centres unmarked)")
"label 0"
>>> assigned_class("OC(C1CCc2cccnc21)C1(c2ccc(F)c(F)c2)CCC1 (centres unmarked) [Example 172]")
"label 0"
>>> assigned_class("OC(CC1(c2ccc(OC(F)(F)F)cc2)CCC1)c1ccccn1 (centres unmarked)")
"label 0"

Turning to the following molecule.
# bool: RAT MICROSOMAL STABILITY (% REMAINING AFTER 30 MINUTES) of N[C@H]1CCC[C@@H]1[C@H](O)C1(c2ccc(Cl)cc2)CCC1 >= 50%
label 0

###

ASSAY_PROTOCOL: In vitro rat microsomal stability assay
Assay type: in vitro ADME, rat (Sprague-Dawley)
PROTOCOL_CONDITIONS: Sprague-Dawley, rat, 0.5 h, 0.5 μM, pH 7.4
Everything with RAT MICROSOMAL STABILITY (% REMAINING AFTER 30 MINUTES) lower than 20% is N; everything else, including exactly 20%, is Y.

Worked examples, 5 compounds total:
>>> assigned_class("OC(c1ccccn1)C1(c2ccc(Cl)c(C(F)(F)F)c2)CC(F)(F)C1 (stereo not drawn) [Example 138]")
"N"
>>> assigned_class("OC(c1ccccn1)C1(c2cccc(F)c2)CCC1 (stereo not drawn) [Example 2]")
"N"
>>> assigned_class("OC1CC(c2ccc(OC(F)(F)F)cc2)(C(O)c2ccccn2)C1 (stereo not drawn) [Example 132]")
"Y"
>>> assigned_class("OC(c1ccccn1)C1(C2=COCCC2)CCC1 (single isomer, unassigned) [Example 270]")
"N"
>>> assigned_class("N[C@@H]1CCC[C@H]1[C@@H](O)C1(c2cccc(C(F)(F)F)c2)CCC1 [Example 227]")
"Y"

# bool: RAT MICROSOMAL STABILITY (% REMAINING AFTER 30 MINUTES) of O[C@@H](c1ncccn1)C1(c2ccc(Cl)c(Cl)c2)CCC1 [Example 40] >= 20%
N

# bool: RAT MICROSOMAL STABILITY (% REMAINING AFTER 30 MINUTES) of OC1CC(c2ccc(Cl)c(Cl)c2)(C(O)c2ncccn2)C1 (single isomer, unassigned) [Example 313] >= 20%
Y

# bool: RAT MICROSOMAL STABILITY (% REMAINING AFTER 30 MINUTES) of OC(c1ccccn1)C1(C2=CCCC(C(F)(F)F)C2)CCC1 (stereo not drawn) [Example 261] >= 20%
N

# bool: RAT MICROSOMAL STABILITY (% REMAINING AFTER 30 MINUTES) of N[C@H]1CCC[C@@H]1[C@H](O)C1(c2ccc(OC(F)(F)F)cc2)CCC1 [Example 222] >= 20%
Y

###

ASSAY_PROTOCOL: In vitro rat microsomal stability assay
Assay type: in vitro ADME, rat (Sprague-Dawley)
PROTOCOL_CONDITIONS: Sprague-Dawley, rat, 0.5 h, 0.5 μM, pH 7.4
Description: Test compounds were evaluated for metabolic stability in an in vitro rat microsomal stability assay using rat (Sprague-Dawley, from BD Biosciences) liver microsomes and/or an in vitro human microsomal stability assay using human (Xenotech) liver microsomes. […] Incubations were carried out at 37° C. with a final incubation volume of 135 μL. […] A 1.5 μL aliquot of reduced nicotine adenine disphosphonucleotide (NADPH) (Chem-Impex Int'L Inc., Lot 12532024) was also added to the time-zero plates.
Attribute: RAT MICROSOMAL STABILITY (% REMAINING AFTER 30 MINUTES)
# value in %; strip the unit string

Consider the worked cases shown below.
>>> assay_value("OC(c1ccccn1)C1(c2ccc(Cl)c(Cl)c2)CCNCC1 (stereo not drawn) [Example 140]")
37
>>> assay_value("O[C@H](c1ccccn1)C1(c2ccc(C(F)(F)F)cc2)CCC1 [Example 28]")
13
>>> assay_value("OC1CC(c2cc(C(F)(F)F)ccn2)(C(O)c2ccccn2)C1 (single isomer, unassigned) [Example 290]")
71

// moving on: another record for RAT MICROSOMAL STABILITY (% REMAINING AFTER 30 MINUTES)
Find the measured RAT MICROSOMAL STABILITY (% REMAINING AFTER 30 MINUTES) of OC(c1ccccn1)C1(c2cc(C(F)(F)F)cc(C(F)(F)F)c2)CCC1 (stereo not drawn) [Example 13] and report it.
19

###

ASSAY_PROTOCOL: In vitro human microsomal stability assay
Assay type: in vitro ADME
PROTOCOL_CONDITIONS: human, 0.5 h, 0.5 μM, pH 7.4
Attribute: HUMAN MICROSOMAL STABILITY (% REMAINING AFTER 30 MINUTES)
# value in %; strip the unit string

Consider the worked cases shown below.
>>> assay_value("OC(c1ccccn1)C1(Cc2cccc(F)c2)CCC1 (stereo not shown)")
1.1
>>> assay_value("NC1CCCC1C(O)C1(c2ccc(OC(F)(F)F)cc2)CCC1 (stereo not shown)")
83
>>> assay_value("OC(c1ccccn1)C1(c2nc3ccccc3o2)CCC1 (stereo not shown)")
62
>>> assay_value("OC(c1ccccn1)C1(c2nc3ccc(F)cc3s2)CCC1 (stereo not shown)")
35
>>> assay_value("OC(c1ccccn1)C1(C2CCCCC2)CCC1 (stereo not shown)")
0.02
>>> assay_value("O/N=C(\\c1ccccn1)C1(c2ccc(Cl)c(Cl)c2)CCC1")
33
>>> assay_value("OC(c1ccccn1)C1(C2=COCCC2)CCC1 (single isomer, unassigned)")
17

Find the measured HUMAN MICROSOMAL STABILITY (% REMAINING AFTER 30 MINUTES) of Cc1ccccc1C1(C(O)c2ccccn2)CCC1 (stereo not shown) and report it.
0.15

###

EXPERIMENTAL_SYSTEM: human TRPV3 (Homo sapiens)
Construct: expressed in transfected cells
Sequence (Q8NET8 whole entry): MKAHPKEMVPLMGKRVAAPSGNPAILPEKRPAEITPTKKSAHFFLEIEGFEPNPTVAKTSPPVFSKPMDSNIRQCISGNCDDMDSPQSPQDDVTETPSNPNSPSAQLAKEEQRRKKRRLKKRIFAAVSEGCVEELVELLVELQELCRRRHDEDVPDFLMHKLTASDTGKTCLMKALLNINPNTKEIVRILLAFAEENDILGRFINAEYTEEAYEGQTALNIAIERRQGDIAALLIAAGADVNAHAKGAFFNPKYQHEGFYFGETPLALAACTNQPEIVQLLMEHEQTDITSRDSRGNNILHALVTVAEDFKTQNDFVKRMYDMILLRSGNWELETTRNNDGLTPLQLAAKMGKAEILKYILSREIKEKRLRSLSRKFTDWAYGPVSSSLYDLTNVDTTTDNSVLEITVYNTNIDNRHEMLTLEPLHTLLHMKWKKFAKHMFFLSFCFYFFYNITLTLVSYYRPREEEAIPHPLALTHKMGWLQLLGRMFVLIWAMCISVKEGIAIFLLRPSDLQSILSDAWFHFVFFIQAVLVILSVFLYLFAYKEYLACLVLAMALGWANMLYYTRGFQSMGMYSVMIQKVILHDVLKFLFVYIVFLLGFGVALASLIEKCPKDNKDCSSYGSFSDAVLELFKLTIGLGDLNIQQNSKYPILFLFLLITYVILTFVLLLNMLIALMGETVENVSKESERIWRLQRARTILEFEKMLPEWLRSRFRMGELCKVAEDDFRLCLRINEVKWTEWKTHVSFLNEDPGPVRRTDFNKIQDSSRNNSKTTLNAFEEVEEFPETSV
ASSAY_PROTOCOL: In vitro antagonism of recombinant human TRPV3 activation (FLIPR Tetra calcium assay, 2-APB as agonist)
Format: cell-based
PROTOCOL_CONDITIONS: HEK293 cells stably expressing human TRPV3; 2-APB 80 μM; range class; read-out: IC50 (reported range)
pIC50: −log10 of the molar value.
Attribute: pIC50

Consider the worked cases shown below.
>>> assay_value("OC(c1ccccn1)C1(c2cccc(F)c2)CCOCC1 (stereo not shown)")
"4.70 to 5.29"
>>> assay_value("CC(c1cccc(F)c1)C1(C(O)c2ccccn2)CCC1 (stereo not shown)")
"5.30 to 5.96"
>>> assay_value("O[C@H](c1ncccn1)C1(c2ccc(Cl)c(Cl)c2)CCC1")
"6.00 to 6.30"
>>> assay_value("OC(c1ccccn1)C1(c2cccc(OC(F)(F)F)c2)CC2(C1)OCCO2 (stereo not shown)")
"5.30 to 5.96"

// moving on: another record for pIC50
Fetch value of pIC50 on human TRPV3 (Homo sapiens) for CC1(O)CC(c2cccc(C(F)(F)F)c2)(C(O)c2ccccn2)C1 (single isomer, unassigned) [Example 236] .
6.00 to 6.30
